Kindly supply the reported pIC50 values for the records listed here.
tested on: 922993-354-T-J3-PDC complex spheroid viability; experiment: Anticancer human tumor 922993-354-T-J3-PDC patient-derived endometrial carcinoma cell line growth inhibition [POLQ]; conditions: curve of first compound; second compound 3.16 µM;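 also: spheroids exposed to the agents for one week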
# pIC50: negative log10 of molar concentration; output just the value

CCc1c2c(nc3ccc(O)cc13)-c1cc3c(c(=O)n1C2)COC(=O)[C@]3(O)CC + COC1C(OC(N)=O)C(O)C(Oc2ccc3c(O)c(NC(=O)c4ccc(O)c(CC=C(C)C)c4)c(=O)oc3c2C)OC1(C)C yielded pIC50 of 8.15

Cn1ncnc1[C@H]1c2n[nH]c(=O)c3cc(F)cc(c23)N[C@@H]1c1ccc(F)cc1 + Cc1cccc(N(C)C(=O)C2C(O)CCN2c2nc(C)cc(C(F)(F)F)c2C#N)c1 yielded pIC50 of 7.08
